# test_target: T1, human AMHRII (anti-Mullerian hormone receptor type 2) (human, UniProt Q16671 18-573)
# T1 construct: whole, on cells; also called AMHR2; human AMHR2
# T1 sequence (looked up): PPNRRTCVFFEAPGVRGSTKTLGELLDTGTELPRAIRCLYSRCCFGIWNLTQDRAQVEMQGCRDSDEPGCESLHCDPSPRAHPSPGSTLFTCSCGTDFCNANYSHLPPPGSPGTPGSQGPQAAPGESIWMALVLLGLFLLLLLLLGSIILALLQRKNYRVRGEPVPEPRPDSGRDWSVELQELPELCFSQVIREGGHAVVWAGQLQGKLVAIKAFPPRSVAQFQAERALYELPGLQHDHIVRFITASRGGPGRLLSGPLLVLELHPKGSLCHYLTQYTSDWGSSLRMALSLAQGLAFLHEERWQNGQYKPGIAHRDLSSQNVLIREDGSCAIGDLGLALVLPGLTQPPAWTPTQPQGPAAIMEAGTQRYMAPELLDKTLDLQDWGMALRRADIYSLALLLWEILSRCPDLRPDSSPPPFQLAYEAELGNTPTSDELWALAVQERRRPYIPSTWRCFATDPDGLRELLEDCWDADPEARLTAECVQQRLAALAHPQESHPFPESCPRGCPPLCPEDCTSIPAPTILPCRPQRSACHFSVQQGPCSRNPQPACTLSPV
# procedure_text: FACS on CHO-K1 cells over-expressing human AMHR2
measurement_type: pEC50
In textbook form, pEC50 equals minus log to base ten of the concentration in mol/L.

The examples below pair each entry with its known result.
binder: 94C4C3 H2L2 hIgG1 (antibody, V domains shown, Humanized, human IgG1; also called 94C4C3 H2L2 hlgG1) VH: QLQLQESGPGLVKPSETLSLTCTVSGYSITSDYAWNWIRQPPGKGLEWMGYISYSGSISYNPSLKSRITISRDTSKNQFSLKLSSVTAADTAVYYCARSRYSWFDYWGQGTLVTVSS VL: EIVLTQSPGTLSLSPGERATLSCSASESVDTYGNSFMHWYQQKPGQPPRLLIYRASSLESGIPVRFSGSGSRTDFTLTISRLEPEDFAVYYCQQSNEDPYTFGGGTKVEIK
data_value: 8.85
//
binder: 31D9B3 VH1-VL2.2 hIgG1 (antibody, V domains shown, Humanized, PTM de-risked (VL G(30D)R), human IgG1; also called 31D9B3 VH1-VL2.2 hlgG1) VH: QVQLVQSGAEVKKPGASVKVSCKASGYTFTDYWVSWVRQAPGQGLEWMGEIYPKNGVSNFNEKFKGRVTMTTDTSTSTAYMELRSLRSDDTAVYYCARQRDYWGQGTLVTVSS VL: DVVMTQSPLSLPVTLGQPASISCRSSQSLEYGDRYTYLEWYLQRPGQSPRLLIYGVSNRFSGVPDRFSGSGSGTDFTLKISRVEAEDVGVYYCFQATHDPNTFGQGTKLEIK
data_value: 9.31
//
binder: 108F3D1E9 H1L3 hIgG1 (antibody, V domains shown, Humanized, human IgG1; also called 108F3D1E9 H1L3 hlgG1) VH: QLQLQESGPGLVKPSETLSLTCTVSGYSITSDFAWNWIRQPPGKGLEWIGYISFSGSTSYNPSLKSRVTISVDTSKNQFSLKLSSVTAADTAVYYCARSRYSWFAYWGQGTLVTVSS VL: DIVLTQSPSSLSASVGDRVTITCRASESVDTYGNSFMHWYQQKPGQPPKLLIYRASNLESGIPARFSGSGSGTDFTLTISSVQPEDFATYYCQQSNEDPYTFGGGTKVEIK
data_value: 9.09

Record 108F3D1E9 H1L4 hIgG1 (antibody, V domains shown, Humanized, human IgG1; also called 108F3D1E9 H1L4 hlgG1) VH: QLQLQESGPGLVKPSETLSLTCTVSGYSITSDFAWNWIRQPPGKGLEWIGYISFSGSTSYNPSLKSRVTISVDTSKNQFSLKLSSVTAADTAVYYCARSRYSWFAYWGQGTLVTVSS VL: DIVLTQSPSSLSVSVGDRATITCRASESVDTYGNSFMHWYQQKPGQPPKLLIYRASNLESGIPARFSGSGSRTDFTLTISSVQPEDFATYYCQQSNEDPYTFGGGTKLEIK , field pEC50: 9.06
